tested on: HLF cells; assay: Cellular dose response assay, HLF; assay type: cell-based, human; settings: compounds alone; Table 4; read-out: IC50 (uM) HLF^a
property.measured: log10 of IC50 (log10 of the value in µM)
Could you please treat all values as log10 of IC50 in µM?

Example entries begin here.
Ask: Identify the reported log10 of IC50 for the following entry. CC(C)(COC(=O)CCl)NC(=O)c1cc2ccccc2[nH]1 [QW-147]
Reply: 1.99

Ask: Identify the reported log10 of IC50 for the following entry. CC(C)(COC(=O)CCl)NC(=O)c1cc2ccc(Br)cc2[nH]1 [QW-156]
Reply: 1.13

Ask: Identify the reported log10 of IC50 for the following entry. COC(=O)c1ccc([C@@H]2c3[nH]c4ccccc4c3C[C@@H](C(=O)OC)N2C(=O)CCl)cc1 [RSL3, reference compound]
Reply: -0.60

Ask: Identify the reported log10 of IC50 for the following entry. COc1ccc2cc(C(=O)NC(C)(C)COC(=O)CCl)[nH]c2c1 [QW-152]
Reply: 1.48

Next:
Ask: Identify the reported log10 of IC50 for the following entry. CC(C)(COC(=O)CCl)NC(=O)c1cc2cc([N+](=O)[O-])ccc2[nH]1 [QW-148]
Reply: 1.22
